# Target Or Test System: hERG channel (Homo sapiens)
# Construct: host or cells: CHO cells
# Sequence (Q12809 whole entry): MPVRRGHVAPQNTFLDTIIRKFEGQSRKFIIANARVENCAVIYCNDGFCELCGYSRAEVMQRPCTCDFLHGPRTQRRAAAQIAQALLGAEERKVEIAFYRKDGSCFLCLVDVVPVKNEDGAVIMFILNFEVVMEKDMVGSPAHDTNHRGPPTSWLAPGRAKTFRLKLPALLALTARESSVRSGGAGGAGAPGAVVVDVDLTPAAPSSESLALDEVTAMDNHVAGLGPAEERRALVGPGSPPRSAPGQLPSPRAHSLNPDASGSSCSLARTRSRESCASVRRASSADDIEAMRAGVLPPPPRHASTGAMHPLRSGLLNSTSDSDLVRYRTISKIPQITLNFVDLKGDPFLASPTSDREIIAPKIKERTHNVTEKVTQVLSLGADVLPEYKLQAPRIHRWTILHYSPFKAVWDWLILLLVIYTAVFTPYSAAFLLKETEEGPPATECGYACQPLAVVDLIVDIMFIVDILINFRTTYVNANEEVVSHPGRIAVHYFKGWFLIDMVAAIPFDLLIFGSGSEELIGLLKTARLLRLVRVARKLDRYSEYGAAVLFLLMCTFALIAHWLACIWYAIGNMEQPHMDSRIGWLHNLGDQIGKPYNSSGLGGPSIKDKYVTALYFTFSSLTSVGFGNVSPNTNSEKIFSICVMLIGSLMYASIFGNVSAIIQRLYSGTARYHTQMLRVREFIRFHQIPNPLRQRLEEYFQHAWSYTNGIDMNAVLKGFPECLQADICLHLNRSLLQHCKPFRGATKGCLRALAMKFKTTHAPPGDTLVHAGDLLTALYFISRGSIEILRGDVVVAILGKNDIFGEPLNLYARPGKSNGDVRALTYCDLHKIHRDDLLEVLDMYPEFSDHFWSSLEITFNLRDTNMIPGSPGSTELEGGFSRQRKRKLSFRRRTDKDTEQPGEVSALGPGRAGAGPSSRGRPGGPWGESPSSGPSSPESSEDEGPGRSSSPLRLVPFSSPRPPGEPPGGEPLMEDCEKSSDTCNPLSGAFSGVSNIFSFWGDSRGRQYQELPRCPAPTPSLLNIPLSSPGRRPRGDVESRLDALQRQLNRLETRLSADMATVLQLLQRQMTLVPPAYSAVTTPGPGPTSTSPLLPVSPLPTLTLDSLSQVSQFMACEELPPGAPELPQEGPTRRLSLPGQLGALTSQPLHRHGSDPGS
# Run Description: hERG channel inhibitory activity, whole-cell patch clamp (auto-patch clamp system)
# Type: cell-based
# Particulars: read-out: hERG IC50
# Experimental: Evaluation of hERG (Human Ether-a-go-go Related Gene) Channel Inhibitory Activity The hERG channel inhibitory activity of the compound of the present invention was measured using CHO cells (B′ SYS GmbH) forcibly expressing hERG channels involved in human rapidly active delayed rectifier potassium current (IKr) by the whole-cell patch clamp method using an auto-patch clamp system (SyncroPatch384PE). […]
Parameter Measured: IC50

Q: // returns reported IC50 for input CC[C@@H]1CN(C(=O)CNC(=O)/C=C/c2ccc(C(F)(F)F)cc2F)[C@@H](c2ccccc2)CN1CCCC(=O)O
A: > 30 µM

Q: And what about the compound O=C(O)Cc1cc(Cl)c2c(c1)CCN(C(=O)CNC(=O)/C=C/c1ccc(C(F)(F)F)cc1)C2 ?
A: > 30 µM

Q: And what about the compound O=C(O)CCCN1CCN(C(=O)CNC(=O)/C=C/c2ccc(C(F)(F)F)cc2F)C(c2cccc(F)c2)C1 (stereo not drawn) ?
A: > 30 µM

Q: And what about the compound N#Cc1cc(CC(=O)O)cc2c1CN(C(=O)CNC(=O)/C=C/c1ccc(C(F)(F)F)cc1)CC2 ?
A: > 30 µM

Q: And what about the compound O=C(O)Cc1ccc2c(c1F)CCN(C(=O)CNC(=O)/C=C/c1ccc(C(F)(F)F)cc1)C2 ?
A: > 30 µM

Q: And what about the compound O=C(O)Cc1cc(Cl)c2c(c1)CCN(C(=O)CNC(=O)/C=C/c1ccc(C(F)(F)F)cc1F)C2 ?
A: > 30 µM

Q: And what about the compound O=C(O)Cc1ccc2c(c1)CCN(C(=O)CNC(=O)/C=C/c1ccc(C(F)(F)F)cc1F)C2 ?
A: > 30 µM

Q: And what about the compound CC(C(=O)O)c1ccc2c(c1)CCN(C(=O)CNC(=O)/C=C/c1ccc(C(F)(F)F)cc1)C2 (single isomer, unassigned) [I-286] ?
A: > 30 µM

Q: And what about the compound O=C(O)CSc1nc2c(s1)CN(C(=O)CNC(=O)/C=C/c1ccc(C(F)(F)F)cc1F)CC2 ?
A: > 30 µM

Q: And what about the compound C[C@@H]1CN(C(=O)CNC(=O)/C=C/c2ccc(C(F)(F)F)cc2F)[C@H](C)CN1CCCC(=O)O ?
A: > 30 µM

Q: And what about the compound O=C(O)Cc1cc2c(cc1F)CN(C(=O)CNC(=O)/C=C/c1ccc(C(F)(F)F)cc1)CC2 ?
A: > 30 µM

Q: And what about the compound N#Cc1c(CC(=O)O)ccc2c1CCN(C(=O)CNC(=O)/C=C/c1ccc(C(F)(F)F)cc1)C2 ?
A: 24.9 µM
